run description: Kinetic solubility by nephelometry
Type: physicochemical
conditions: phosphate buffer, pH 6.5, aqueous buffer, kinetic from dmso stock, phosphate buffer, 1% DMSO, read-out: Solubility pH 6.5
property label: solubility at 30 min

The molecule COc1cc(C(=O)/C=C/c2cn(S(=O)(=O)c3ccccc3)c3ccccc23)cc(OC)c1OC [Compound 29e] showed solubility at 30 min equal to ≤ 150 µg/mL

###

run description: In vitro metabolic stability, mouse liver microsomes
Assay type: in vitro ADME
conditions: 0.4 mg/mL protein, 37 °C, read-out: Degradation half-life Mouse
property label: half-life at 0.5 µM (h)
Your answer is read as h, so omit the unit and give the number.

The molecule COc1cc(C(=O)/C=C/c2cn(S(=O)(=O)c3ccccc3)c3ccccc23)cc(OC)c1OC [Compound 29e] showed half-life at 0.5 µM equal to 1

###

// values below are reported IC50
Tested on: K562
run description: CCK-8 assay, K562
Assay type: cell-based
conditions: Homo sapiens, leukaemia, CML, CCK-8, 72 h
Respond with the figure and its unit, in that order.

Please review the entries below; each comes with its answer.
compound: COc1cc(C(=O)/C=C/c2ccnc3ccccc23)cc(OC)c1OC
property label: IC50
observed result: 6200 nM
--
compound: COc1cc(C(=O)/C=C/c2cn(S(=O)(=O)c3ccccc3)c3ccccc23)cc(OC)c1OC [Compound 29e]
property label: IC50
observed result: 90 nM

Now take the following compound into account.
The compound COc1ccc(/C=C\c2cc(OC)c(OC)c(OC)c2)cc1O [CA-4, Combretastatin A-4, reference compound] showed IC50 equal to 270 nM

###

run description: Preliminary cytotoxicity study on zebrafish embryos
conditions: zebrafish, in vivo
property label: IC50 (µM)
Your answer is read as µM, so omit the unit and give the number.

The molecule COc1cc(C(=O)/C=C/c2cn(S(=O)(=O)c3ccccc3)c3ccccc23)cc(OC)c1OC [Compound 29e] showed IC50 equal to 44.6

###

// values below are reported melting point

Please review the entries below; each comes with its answer.
compound: CCCn1cc(/C=C/C(=O)c2ccc(C(F)(F)F)cc2)c2ccccc21 [Compound 28c]
observed result: 161 to 162 °C

compound: COc1cccc(C(=O)/C=C/c2cn(S(=O)(=O)c3ccccc3)c3ccccc23)c1 [Compound 27e]
observed result: 167 to 168 °C

compound: CCn1cc(/C=C/C(=O)c2cc(OC)c(OC)c(OC)c2)c2ccccc21 [Compound 29b]
observed result: 155 to 158 °C

compound: COc1cccc(C(=O)/C=C/c2cn(C)c3ccccc23)c1 [Compound 27a]
observed result: 161 to 162 °C

The compound Cn1cc(/C=C/C(=O)c2ccc(Cl)cc2)c2ccccc21 [Compound 25a] showed melting point equal to 171 to 173 °C

The compound COc1cc(C(=O)/C=C/c2cn(Cc3ccccc3)c3ccccc23)cc(OC)c1OC [Compound 29d] showed melting point equal to 160 to 163 °C

The compound O=C(/C=C/c1cn(Cc2ccccc2)c2ccccc12)c1ccc(Cl)cc1 [Compound 25d] showed melting point equal to 163 to 165 °C

The compound COc1ccc(C(=O)/C=C/c2cn(Cc3ccccc3)c3ccccc23)cc1 [Compound 26d] showed melting point equal to 161 to 163 °C

The compound CCn1cc(/C=C/C(=O)c2cccc(Cl)c2)c2ccccc21 [Compound 24b] showed melting point equal to 165 to 168 °C

###

// values below are reported melting point

Please review the entries below; each comes with its answer.
molecule: CCn1cc(/C=C/C(=O)c2ccccc2)c2ccccc21 [Compound 23b]
melting point: 165 to 168 °C
--
molecule: O=C(/C=C/c1cn(S(=O)(=O)c2ccccc2)c2ccccc12)c1ccc(Cl)cc1 [Compound 25e]
melting point: 162 to 165 °C
--
molecule: O=C(/C=C/c1cn(S(=O)(=O)c2ccccc2)c2ccccc12)c1cccc(Cl)c1 [Compound 24e]
melting point: 165 to 168 °C

The molecule CCn1cc(/C=C/C(=O)c2cccc(OC)c2)c2ccccc21 [Compound 27b] showed melting point equal to 165 to 166 °C

The molecule O=C(/C=C/c1cn(Cc2ccccc2)c2ccccc12)c1ccc(C(F)(F)F)cc1 [Compound 28d] showed melting point equal to 160 to 163 °C

The molecule COc1ccc(C(=O)/C=C/c2cn(S(=O)(=O)c3ccccc3)c3ccccc23)cc1 [Compound 26e] showed melting point equal to 165 to 168 °C

The molecule CCn1cc(/C=C/C(=O)c2ccc(C(F)(F)F)cc2)c2ccccc21 [Compound 28b] showed melting point equal to 165 to 168 °C

The molecule COc1cc(C(=O)/C=C/c2cn(C)c3ccccc23)cc(OC)c1OC [Compound 29a] showed melting point equal to 160 to 162 °C

The molecule COc1cccc(C(=O)/C=C/c2cn(Cc3ccccc3)c3ccccc23)c1 [Compound 27d] showed melting point equal to 161 to 163 °C

The molecule CCCn1cc(/C=C/C(=O)c2cc(OC)c(OC)c(OC)c2)c2ccccc21 [Compound 29c] showed melting point equal to 162 to 164 °C

The molecule CCCn1cc(/C=C/C(=O)c2cccc(OC)c2)c2ccccc21 [Compound 27c] showed melting point equal to 161 to 162 °C

The molecule CCCn1cc(/C=C/C(=O)c2ccccc2)c2ccccc21 [Compound 23c] showed melting point equal to 161 to 162 °C

The molecule O=C(/C=C/c1cn(S(=O)(=O)c2ccccc2)c2ccccc12)c1ccccc1 [Compound 23e] showed melting point equal to 165 to 168 °C

###

run description: In vitro metabolic stability, human liver microsomes
Assay type: in vitro ADME
conditions: 0.4 mg/mL protein, 37 °C, read-out: Degradation half-life Human
Procedure: The metabolic stability assay was performed by incubating the test compound in mouse or human liver microsomes (XenoTech, lot no. 1510256) at 37 °C and a protein concentration of 0.4 mg/mL. Microsomal incubations were performed at a substrate concentration of 0.5 µM. Data analysis. Species scaling factors were used to convert the in vitro CLint(mL/min/mg) to an in vivo CLint(mL/min/kg).
property label: half-life at 0.5 µM (min)
Your answer is read as min, so omit the unit and give the number.

The compound COc1cc(C(=O)/C=C/c2cn(S(=O)(=O)c3ccccc3)c3ccccc23)cc(OC)c1OC [Compound 29e] showed half-life at 0.5 µM equal to 35

###

tested target: Tubulin isolated from porcine brain tissue (Sus scrofa, UniProt P02550+P02554)
Sequence (P02554 whole entry): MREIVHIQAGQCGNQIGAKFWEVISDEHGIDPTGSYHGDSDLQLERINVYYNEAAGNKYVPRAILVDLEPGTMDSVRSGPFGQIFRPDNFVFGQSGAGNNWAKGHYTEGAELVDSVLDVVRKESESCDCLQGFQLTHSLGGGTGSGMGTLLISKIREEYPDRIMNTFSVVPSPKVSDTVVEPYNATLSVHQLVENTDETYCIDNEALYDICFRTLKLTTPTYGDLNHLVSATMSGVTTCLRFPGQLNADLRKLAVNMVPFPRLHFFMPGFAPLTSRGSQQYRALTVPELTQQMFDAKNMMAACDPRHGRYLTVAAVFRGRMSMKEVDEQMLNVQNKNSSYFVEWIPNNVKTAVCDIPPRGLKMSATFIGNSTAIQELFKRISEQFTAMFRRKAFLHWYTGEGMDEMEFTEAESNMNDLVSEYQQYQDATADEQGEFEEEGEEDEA
Sequence (P02550 whole entry): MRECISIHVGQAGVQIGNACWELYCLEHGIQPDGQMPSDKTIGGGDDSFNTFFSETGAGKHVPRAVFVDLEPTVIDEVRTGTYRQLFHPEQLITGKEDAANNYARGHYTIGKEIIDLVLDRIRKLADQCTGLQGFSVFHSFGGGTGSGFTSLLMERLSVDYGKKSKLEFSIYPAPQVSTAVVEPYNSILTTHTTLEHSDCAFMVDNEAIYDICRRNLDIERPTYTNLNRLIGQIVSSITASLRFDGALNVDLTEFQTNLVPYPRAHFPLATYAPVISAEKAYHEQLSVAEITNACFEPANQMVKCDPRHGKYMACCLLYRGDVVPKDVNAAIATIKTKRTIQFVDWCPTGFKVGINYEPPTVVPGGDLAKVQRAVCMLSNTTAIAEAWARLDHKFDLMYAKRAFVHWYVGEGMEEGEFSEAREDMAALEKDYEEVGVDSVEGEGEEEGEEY
run description: Tubulin polymerisation assay
conditions: triplicate, mean ± SD; read-out: Tubulin (tubulin inhibitory polymerisation IC50)
// values below are reported pIC50
Please note pIC50 is a logarithmic value: minus log10 of concentration in mol/L. Answer with that number alone.

Please review the entries below; each comes with its answer.
molecule: COc1ccc(C(=O)/C=C/c2cn(C)c3ccccc23)cc1 [Compound 26a]
pIC50: 4.07
//
molecule: COc1ccc(C(=O)/C=C/c2cn(Cc3ccccc3)c3ccccc23)cc1 [Compound 26d]
pIC50: 4.12

Now take the following molecule into account.
The molecule COc1cc(C(=O)C=Cc2ccc3sc4ccccc4c3c2)cc(OC)c1OC [Compound 8] showed pIC50 equal to 4.34

###

run description: Kinetic solubility by nephelometry
Assay type: physicochemical
conditions: 0.01 M HCl, pH 2, simulated gastric fluid, kinetic from dmso stock, 0.01 M HCl, 1% DMSO, read-out: Solubility pH 2.0
Method: Calculated physicochemical parameters. Physicochemical properties were calculated using the ChemAxon chemistry cartridge via JChem for Excel software (version 16.4.11). Compound 29e in DMSO was spiked into either pH 6.5 phosphate buffer or 0.01 M HCl (approximately pH 2.0) with the final DMSO concentration being 1%. After 30 min had elapsed, samples were analysed via Nephelometry to determine a solubility range.
property label: solubility at 30 min

The compound COc1cc(C(=O)/C=C/c2cn(S(=O)(=O)c3ccccc3)c3ccccc23)cc(OC)c1OC [Compound 29e] showed solubility at 30 min equal to 25 to 50 µg/mL

###

tested target: Tubulin isolated from porcine brain tissue (Sus scrofa, UniProt P02550+P02554)
run description: Tubulin polymerisation assay
conditions: triplicate, mean ± SD; read-out: Tubulin (tubulin inhibitory polymerisation IC50)
property label: pIC50
Please note pIC50 is a logarithmic value: minus log10 of concentration in mol/L. Answer with that number alone.

compound: CCn1cc(/C=C/C(=O)c2ccc(OC)cc2)c2ccccc21 [Compound 26b]
pIC50: 4.10
--
compound: COc1cc(C(=O)/C=C/c2cn(Cc3ccccc3)c3ccccc23)cc(OC)c1OC [Compound 29d]
pIC50: 4.61
--
compound: COc1ccc(C(=O)/C=C/c2cn(S(=O)(=O)c3ccccc3)c3ccccc23)cc1 [Compound 26e]
pIC50: 4.23
--
compound: COc1cc(C(=O)C=Cc2cc3ccccc3o2)cc(OC)c1OC [Compound 7]
pIC50: 4.73
--
compound: COc1cc(C(=O)C=Cc2nc3ccccc3[nH]2)cc(OC)c1OC [Compound 9]
pIC50: 4.68
--
compound: COc1cc(C(=O)/C=C/c2cn(S(=O)(=O)c3ccccc3)c3ccccc23)cc(OC)c1OC [Compound 29e]
pIC50: 5.32
--
compound: O=C(/C=C/c1cn(S(=O)(=O)c2ccccc2)c2ccccc12)c1cccc(Cl)c1 [Compound 24e]
pIC50: 4.03
--
compound: CCCn1cc(/C=C/C(=O)c2cccc(OC)c2)c2ccccc21 [Compound 27c]
pIC50: 4.28

Now take the following compound into account.
The compound O=C(/C=C/c1cn(Cc2ccccc2)c2ccccc12)c1ccccc1 [Compound 23d] showed pIC50 equal to 4.16
